# System under test: MAP/microtubule affinity-regulating kinase 4 (Homo sapiens);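 also: reported value is a mean MARK4 inhibition at 1 µM, taken from the GSK PKIS screening set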
# Measurement parameters: at 1 µM
Measure name: inhibition
Write down the value, and be sure its unit follows.

{"Compound": "CCCN1CCC(Oc2cc(Nc3nc(Nc4cccc(F)c4C(N)=O)c4cc[nH]c4n3)c(OC)cc2Cl)CC1", "Reported measurement": "2.83%"}
{"Compound": "COc1cccc(-n2ncc3c(N/N=C/c4cccc(F)c4)ncnc32)c1", "Reported measurement": "5.56%"}
{"Compound": "CC1=C(C(=O)Nc2ccc3[nH]ncc3c2)C(c2ccc(F)cc2)NC(=O)N1 (centres undefined)", "Reported measurement": "4.62%"}
{"Compound": "CS(=O)(=O)CCNCc1ccc(-c2ccc3ncnc(Nc4ccc(OCc5ccccc5)c(Cl)c4)c3c2)o1", "Reported measurement": "1.91%"}
{"Compound": "Cn1cc(C=C2C(=O)Nc3cccnc32)c2ccccc21", "Reported measurement": "6.49%"}
{"Compound": "CC1=C(C(=O)Nc2ccc3[nH]ncc3c2)C(c2ccc(Cl)c(Cl)c2)CC(=O)N1 (centres undefined)", "Reported measurement": "3.04%"}

In: Respond only with inhibition recorded for CC(=O)Nc1cccc(C#Cc2cncnc2Nc2ccc(OCc3cccc(F)c3)c(Cl)c2)n1
Out: 0.84%

In: Respond only with inhibition recorded for COc1ccccc1Nc1ncc(-c2ccccc2)o1
Out: 4.33%

In: Respond only with inhibition recorded for Cc1ccc(C(=O)NC2CCCCC2)cc1-c1ccc(C(=O)NCC2CC2)cc1
Out: 1.5%
